experiment.notes: in vitro
experimental.setup: human, hela cells, % viability
Would you mind telling me the reported viability at 28.5 h, 10 µM of each entry?
State the answer as a number, implicitly in %.

Would you kindly share the measured viability at 28.5 h, 10 µM for Cc1ccc(S(=O)(=O)Nc2ccc(Nc3cc(-c4cc(C(F)(F)F)cc(C(F)(F)F)c4)ncn3)cc2)cc1 ? 99.6

Would you kindly share the measured viability at 28.5 h, 10 µM for COC(=O)C1=C(C)OC(n2cccc2)=C(C#N)C1c1cc(OC)c(O)c(OC)c1 (centres unmarked) ? 101

Would you kindly share the measured viability at 28.5 h, 10 µM for CC(Cn1cccn1)C(=O)Nc1cccc(N2CCCC2)c1 (centres unmarked) ? 87.1

Would you kindly share the measured viability at 28.5 h, 10 µM for COc1ccccc1-c1cnccc1-n1ccnc1 ? 100

Would you kindly share the measured viability at 28.5 h, 10 µM for C=Cn1ncc(CN2CCN(C3CCCCC3)C(=O)C2)c1C ? 107

###

Would you mind telling me the reported viability at 28.5 h, 10 µM of each entry?
experiment.notes: in vitro
experimental.setup: human, hela cells, % viability
State the answer as a number, implicitly in %.

Would you kindly share the measured viability at 28.5 h, 10 µM for CC(C)(C(=O)N1CCC(C(=O)NCCc2c[nH]c3ccccc23)C1)c1ccc(F)cc1 (stereo not shown) ? 102

Would you kindly share the measured viability at 28.5 h, 10 µM for C[C@H](Cn1c(=O)oc2ccccc21)NC(=O)CC1c2ccccc2Oc2ccccc21 ? 90.1

Would you kindly share the measured viability at 28.5 h, 10 µM for CNS(=O)(=O)c1ccc2c(c1)CCN2C(=O)C1C2CCCCC21 (stereo not shown) ? 100

Would you kindly share the measured viability at 28.5 h, 10 µM for c1ccc(CC(NCc2c[nH]c3ccccc23)c2ccccc2)cc1 (stereo not shown) ? 96.4

Would you kindly share the measured viability at 28.5 h, 10 µM for Oc1ccc2nc(N[C@H]3CC4CCC3C4)sc2c1Cl (stereo partly shown) [CBK024348G] ? 62.1

Would you kindly share the measured viability at 28.5 h, 10 µM for O=C(O)Cc1ccc(OCC(=O)NCCCSc2ccccc2)cc1 ? 91.9

Would you kindly share the measured viability at 28.5 h, 10 µM for CC(CNC(=O)Cc1ccc(C(F)(F)F)cc1[N+](=O)[O-])N1CCc2ccccc2C1 (stereo not shown) ? 88.8

Would you kindly share the measured viability at 28.5 h, 10 µM for COc1cc(C(F)(F)F)c(-c2ncn[nH]2)cn1 ? 101

Would you kindly share the measured viability at 28.5 h, 10 µM for CCOC(=O)C(NC(=O)c1cc[nH]n1)c1cccc(C)c1C (stereo not shown) ? 85.5

Would you kindly share the measured viability at 28.5 h, 10 µM for COCC(=O)NCc1cc2n(n1)CCN(Cc1cccs1)C2 ? 106

Would you kindly share the measured viability at 28.5 h, 10 µM for Cc1cccc(CN(CCN)C(=O)NC2C[C@H]2c2ccccc2)n1 (stereo partly shown) [CBK046220C] ? 120

Would you kindly share the measured viability at 28.5 h, 10 µM for Cn1c(C(N)=O)cc(=O)n1-c1ccc([N+](=O)[O-])cc1 ? 101

Would you kindly share the measured viability at 28.5 h, 10 µM for CN1CCN(c2ccc(NC(=S)NC(=O)c3cc4ccccc4o3)cc2)CC1 ? 95.5

Would you kindly share the measured viability at 28.5 h, 10 µM for Cc1cc(C[C@@H]2CCC[C@H]2NCc2c(C)nn(C(C)C)c2C)on1 ? 98.3

Would you kindly share the measured viability at 28.5 h, 10 µM for CN1CCN(C2CC(=O)N(c3ccc(Oc4ccccc4)cc3)C2=O)CC1 (stereo not shown) ? 103

Would you kindly share the measured viability at 28.5 h, 10 µM for COc1ccc(-c2nnc(SC(C)c3nnc(-c4ccccc4)o3)n2CC(C)C)cc1 (stereo not shown) ? 103

Would you kindly share the measured viability at 28.5 h, 10 µM for CCNC(=O)C1=C(C(=O)NCC)N2C(=NC(C)(C)c3ccccc32)S1 ? 102

Would you kindly share the measured viability at 28.5 h, 10 µM for CCOC(=O)c1cccnc1-c1ccc(S(C)(=O)=O)cc1 ? 105

Would you kindly share the measured viability at 28.5 h, 10 µM for COc1ccc(-c2cnc3[nH]c(=O)n(CCN4CCOCC4)c3n2)cc1 ? 103
